All figures here come from ChEMBL document CHEMBL3244272.

Recorded MST by entry
- System: Plasmodium berghei
- run.description: Antimalarial activity against trophozoite-induced Plasmodium berghei infected in mouse assessed as change in mean survival time at 20 mg/kg, sc single dose after 72 hrs of infection
- Format: functional
- applied.conditions: route subcutaneous
Give the value in days but do not write days after it.

Sample answers from the record:
Nc1nc(N)c2cc(S(=O)(=O)c3cccc4ccccc34)ccc2n1    2.9
Nc1nc(N)c2cc(S(=O)(=O)c3ccc(Br)cc3)ccc2n1    9.9
Nc1nc(N)c2cc(S(=O)(=O)c3ccccc3-c3ccccc3)ccc2n1    0.3

Ask | Supply reported MST belonging to this compound: Nc1nc(N)c2c(Cl)c(S(=O)(=O)c3ccc4ccccc4c3)ccc2n1
Reply | 0.7

Ask | Supply reported MST belonging to this compound: Nc1nc(N)c2c(Cl)c([S+]([O-])c3ccccc3Cl)ccc2n1 (stereo not given)
Reply | 8.6

Ask | Supply reported MST belonging to this compound: Cc1cc(S(=O)(=O)c2ccc3nc(N)nc(N)c3c2)ccc1Br
Reply | 1.5

Ask | Supply reported MST belonging to this compound: Nc1nc(N)c2cc([S+]([O-])c3cccc4ccccc34)ccc2n1 (stereo not given)
Reply | 1.9

Ask | Supply reported MST belonging to this compound: COc1ccc([S+]([O-])c2ccc3nc(N)nc(N)c3c2)cc1 (stereo not given)
Reply | 2.7

Ask | Supply reported MST belonging to this compound: Nc1nc(N)c2c(Cl)c(S(=O)(=O)c3ccccc3)ccc2n1
Reply | 11.9

Ask | Supply reported MST belonging to this compound: Nc1nc(N)c2cc([S+]([O-])c3ccc(Cl)c(Cl)c3)ccc2n1 (stereo not given)
Reply | 15.9
